Just for reference, paper PMC9482650 is where these values come from.

Exercise: for every item that follows, state its recorded pKd.
- testedSystem: T1, SNTA1, Q13424
- T1 sequence (Q13424 82-180, limits assumed, looked up): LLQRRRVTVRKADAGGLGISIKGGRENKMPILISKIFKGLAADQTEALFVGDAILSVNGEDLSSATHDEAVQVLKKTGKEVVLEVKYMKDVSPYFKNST
- protocolDetails: holdup assay
- Design: key: below the threshold = too weak to quantify, mostly under pKd 3.1 to 4
- conditionParameters: plain residues with an end cap or a label only (N-terminal biotin on a linker: ttds)
Output spec: single numeric token, no unit.

QUERY: I'd like to know its pKd. The binder in question is EMDRRPATVV [PLCB4, Q15147]
RESULT: 4.08

QUERY: I'd like to know its pKd. The binder in question is QRQARSETLV [HPV59-E6, Q81964]
RESULT: 3.99
